Experiment: Solubility of the compound at pH 6.5 in fast state simulated intestinal fluid incubated for 16 hrs by HPLC analysis
Format: physicochemical
Settings: fasted state simulated intestinal fluid (FaSSIF)
Outcome label depends on solubility at 16 h relative to 300 µg/mL: at/above gives condition met, below gives condition not met.

[[record]]
structure_notation = "CC(=O)N1c2ccc(F)cc2[C@H](Nc2cnc(C)cn2)C[C@@H]1C"
label_class = "condition met"

[[record]]
structure_notation = "CC(=O)N1c2ccc(C(N)=O)cc2[C@H](Nc2ccc(Cl)cn2)C[C@@H]1C"
label_class = "condition met"

[[record]]
structure_notation = "CC(=O)N1c2ccccc2[C@H](Nc2cnc(C#N)cn2)C[C@@H]1C"
label_class = "condition met"

[[record]]
structure_notation = "CC(=O)N1c2ccc(F)cc2[C@H](Nc2ccc(C#N)cn2)C[C@@H]1C"
label_class = "condition met"

[[record]]
structure_notation = "CC(=O)N1c2ccc(C#N)cc2[C@H](Nc2ccc(C#N)cn2)C[C@@H]1C"
label_class = "condition not met"

[[record]]
structure_notation = "CCNC(=O)c1ccc2c(c1)[C@H](Nc1ncc(Cl)cn1)C[C@H](C)N2C(C)=O"
label_class = "condition not met"

[[record]]
structure_notation = "CCNC(=O)c1ccc2c(c1)[C@H](Nc1ccc(C)cn1)C[C@H](C)N2C(C)=O"
label_class = "condition not met"

[[record]]
structure_notation = "CCNC(=O)c1ccc2c(c1)[C@H](Nc1ccc(Cl)cn1)C[C@H](C)N2C(C)=O"
label_class = "condition not met"

[[record]]
structure_notation = "CC(=O)N1c2ccccc2[C@H](Nc2cnc(C)cn2)C[C@@H]1C"
label_class = "condition not met"

[[record]]
structure_notation = "CC(=O)N1c2ccccc2[C@H](Nc2ccc(C#N)cn2)C[C@@H]1C"
label_class = "condition met"


* * *

Assay: Cmax in KLH-TNP-induced T-cell dependent immunization CD-1 mouse model at 30 mg/kg, po administered daily for 14 days
Format: ADME, organism-based
Design: time 14 day, dose 30 mg/kg, route po
Settings: in vivo
measured-metric: Cmax

[[record]]
structure_notation = "CC(=O)N1c2ccc(C(N)=O)cc2[C@H](Nc2ncc(Cl)cn2)C[C@@H]1C"
endpoint_value = "8.5 µM"


* * *

Biological target: Bromodomain-containing protein 2 (Homo sapiens, UniProt P25440)
Sequence (P25440 whole entry): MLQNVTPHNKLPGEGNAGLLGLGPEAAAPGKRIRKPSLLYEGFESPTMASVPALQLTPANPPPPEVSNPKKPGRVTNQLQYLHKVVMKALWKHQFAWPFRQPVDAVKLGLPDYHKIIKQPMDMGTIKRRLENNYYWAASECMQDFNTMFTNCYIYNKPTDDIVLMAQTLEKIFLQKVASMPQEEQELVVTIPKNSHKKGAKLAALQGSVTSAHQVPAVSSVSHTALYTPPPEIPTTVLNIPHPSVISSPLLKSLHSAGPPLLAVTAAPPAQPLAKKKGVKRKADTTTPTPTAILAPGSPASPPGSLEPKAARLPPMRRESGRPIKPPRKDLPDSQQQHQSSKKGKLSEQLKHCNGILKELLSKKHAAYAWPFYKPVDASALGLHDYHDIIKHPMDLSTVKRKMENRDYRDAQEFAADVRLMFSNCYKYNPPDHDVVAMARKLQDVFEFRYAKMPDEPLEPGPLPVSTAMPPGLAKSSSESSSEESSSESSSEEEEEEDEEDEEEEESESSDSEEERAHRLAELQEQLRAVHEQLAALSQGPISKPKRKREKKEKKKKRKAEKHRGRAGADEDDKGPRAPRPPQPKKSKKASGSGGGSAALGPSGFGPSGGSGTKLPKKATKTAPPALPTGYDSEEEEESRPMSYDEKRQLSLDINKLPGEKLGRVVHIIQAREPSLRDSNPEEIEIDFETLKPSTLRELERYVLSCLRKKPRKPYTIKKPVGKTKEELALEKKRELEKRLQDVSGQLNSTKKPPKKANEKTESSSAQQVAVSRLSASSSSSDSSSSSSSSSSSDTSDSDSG
Experiment: Binding affinity to BRD2 BD1 (unknown origin) assessed as dissociation constant
pKd: −log10 of the molar value.
measured-metric: pKd

[[record]]
structure_notation = "CC(=O)N1c2ccc(C(N)=O)cc2[C@H](Nc2ncc(Cl)cn2)C[C@@H]1C"
endpoint_value = 7.40


* * *

Molecular target: Bromodomain-containing protein 4 (Homo sapiens)
Experiment: Inhibition of BRD4 BD1 (unknown origin) incubated for 30 mins in presence of fluorescent ligand by TR-FRET method
Here the recorded IC50 is given for each entry.
measured-metric: IC50 (nM)

[[record]]
structure_notation = "CC(=O)N1c2ccc(C#N)cc2[C@H](Nc2cnc(C#N)cn2)C[C@@H]1C"
measured_metric = "IC50"
endpoint_value = 501

[[record]]
structure_notation = "CCNC(=O)c1ccc2c(c1)[C@H](Nc1ccc(C)cn1)C[C@H](C)N2C(C)=O"
measured_metric = "IC50"
endpoint_value = 794

[[record]]
structure_notation = "CC(=O)N1c2ccc(F)cc2[C@H](Nc2cnc(C)cn2)C[C@@H]1C"
measured_metric = "IC50"
endpoint_value = 1260

[[record]]
structure_notation = "CC(=O)N1c2ccc(F)cc2[C@H](Nc2ccc(C#N)cn2)C[C@@H]1C"
measured_metric = "IC50"
endpoint_value = 794

[[record]]
structure_notation = "CC(=O)N1c2ccc(F)cc2[C@H](Nc2cnc(C#N)cn2)C[C@@H]1C"
measured_metric = "IC50"
endpoint_value = 1260

[[record]]
structure_notation = "CC(=O)N1c2ccc(C#N)cc2[C@H](Nc2ccc(C#N)cn2)C[C@@H]1C"
measured_metric = "IC50"
endpoint_value = 501

[[record]]
structure_notation = "CC(=O)N1c2ccccc2[C@H](Nc2ccc(C#N)cn2)C[C@@H]1C"
measured_metric = "IC50"
endpoint_value = 1000

[[record]]
structure_notation = "CCNC(=O)c1ccc2c(c1)[C@H](Nc1ccc(F)cn1)C[C@H](C)N2C(C)=O"
measured_metric = "IC50"
endpoint_value = 794

[[record]]
structure_notation = "CC(=O)N1c2ccc(C(N)=O)cc2[C@H](Nc2ccc(C)cn2)C[C@@H]1C"
measured_metric = "IC50"
endpoint_value = 794

[[record]]
structure_notation = "CC(=O)N1c2ccccc2[C@H](Nc2cnc(C)cn2)C[C@@H]1C"
measured_metric = "IC50"
endpoint_value = 1000

